All figures here come from the supplement of paper PMC9170038.

Test system: K4 kissing-loop RNA reporter;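 further: bound reporter read as fluorescence of individual clusters on recovered sequencing chips by microscopy, with normalized cluster intensities fitted with a binding model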
Assay Procedure: apparent KD of K4 kissing-loop reporter; higher = weaker reporter binding
Measurement Setup: Eterna round: R107; input ligand: theophylline 20 uM
Classify on apparent KD of K4 kissing-loop reporter using lowest (below 100 nM), middle (100 nM to below 300 nM), highest (300 nM or more)

GAUUGGCGGACGGCCGCCACUCGGACGAGUCACAGUGAUGUUGUGGUUUGCCAGUCGACUUCAUCGAGGACCGGGUUUGUCGGGC [Exclusion Tryptophan B GF 21] : highest
GGGUCUGCGCGAAGGAGCGCCCUGACAGGUUGCUGCCGUGGGCAGUGAUGUUGCUCAGUCCGGCAGGUAGGUCGCGUGCAGACCC : middle
UUAUUAAUCGCAGAUACCAGUCCAGAAUGAAUACUAUAGUGAUGUUAUAAUAAAGGGAAGGACCCUUGGCAGCUGUAAUAUAUUU [AstrosSsTheB#3] : middle
GCCUGGGCCCGAAGGAGCGCCGUGACAGGUUACUGCAUUGAGCAGUGAUGUUGCUCAAUCUGGCAGGUAGGUCGCGGGCCCAGGC : middle
GUCCACACUGCAGGAUAUGGAGGUAUAGCGAGGGAGUGUGGAAGCACACCUCUGGCAGUGAUGUUGCCAGAAGGGCGGUGCGGCG [Masodionra] : lowest
AGACUACCUACACUGUCAAUAGACAGUGACUAGGAUAUGCUGAUAAGCAGAAGGAGUGAUGUUCCUAAUAAAAGGUGGUAGUCAU [FmnAX 19 #SwitchBubble #StaticStem #K4Early] : middle
GGAUAGGACGGAGGAUAUGGUAGUGAUGUUACCAAACUGGUUAAACAUGUCAGAAAACUGGCAUGACCAGAAGGUUGUCCUAUCG [FmnBX 27 G10+U75] : lowest
UGUGAUGAGUAGAGUGAUGUUUUGAAGGAUACCAGAGUGUUGUUAUUCCCUUGGCAGCUUGAGUGAUGUUUGAUGUUGUUGUUGU [rcrrmullin] : middle
UUCUAACACACCGAUACCAGAGCCCAGUGAUGUUGGGCCUAGGUCGGAUGCUCACUGACGCUCCCUUGGCAGCGGUGGGCUAACC [Arreisve] : middle
AGGCACGAGCAAGGAUAUUGAGUAGAGUGAUGUUCUGCCUGGGUUGGCUCGGAAGAGCCUUCUCAGCGAGAAGGUGCUCGUGCCU [#2 Same State - FMN A Attempt #24 (HarryS)] : highest

Category of ACGCGCGCGAGUGAUGUUCGGAGCGGCUGGCAGGAUAUGUAGCAAUGCAGAAGGGUCGUGGCGCGUCCAGGGUAACCUGGACGCG [#2 Exclusion - FMN A Attempt #26 (HarryS)] :
highest

Place this sequence in its band: UUAGAGAUCUCAGGAUAUCAGUGAUGUUGUAAUCCAGAUCUGAGAUAGAAUUCUAUCUCAGAUCAAUGAGAAGGGAGAUCUCAUU [AK4.2 Exc FMN B]
highest

Each sequence maps to one class by apparent KD of K4 kissing-loop reporter. Which class for UGGGAUGUUAAAGGAUAUAGAAAGUGAUAUUAGAAAGUGAGUGAUGUUGAUGUAAGUGAUGAUAUGUUAGAAGGUUAACAAAACG [abcd] ?
highest

###

System: MS2 coat protein
Assay Procedure: apparent KD of MS2 coat protein; designed switch direction (-1 OFF switch, 1 ON switch): -1; higher = weaker reporter binding
Measurement Setup: input ligand: microRNA oligo, concentration not stated
Readout Type: apparent KD of MS2 coat protein (nM)
A number alone suffices; assume nM.

Solved entries (count: 2):
UAACAAAACUGAGGAUAUCCAUAGCAAAACGUUUGAUCCUCUACAUGAGGAUCACCCAUGUAGCAGGAGAAGGCAGAAACAAAG [Orraenso] (Eterna round: R96, puzzle: Exclusion NG 2) : 90.1
UUGUUGUGUGUAGGAUAUGCAUAUUAUUAUUAUGCAGAAGGACAUGAGGAUCACCCAUGUAUAUUAUUAUUAUAUAUUAUAUAU [Title] (Eterna round: R96, puzzle: Exclusion NG 1) : 22.6

Please fill in: apparent KD of MS2 coat protein reported for CCGGUUGGCGCAGGAUAUACAUGAGGAUCACCCAUGUUCGUGAGGAUCACCCAUGAGUUUUUGUUGUAGAAGGGUGGCCCGGCC (Eterna round: R96, puzzle: Exclusion NG 2) = 16

Lab note: ACACAUGAGGAUCACCCAUGUCGGGUCAUAUCCUUCGAGGGCUAGGAUAUCGGGACUACGAAGCCCGAGAAGGAGCACUCGUUA [Ceorsobi] (Eterna round: R96, puzzle: Exclusion NG 3) gave apparent KD of MS2 coat protein of 66.3

Notebook: UUUAAUGGAAUUAAGAUCACAUGAGGAUCACCCAUGUAUAUAUAGGAUAUCAGCUCGUUUAGAGCUGAGAAGGAUAUAUACAUA [ExNG3/6-B2] (Eterna round: R96, puzzle: Exclusion NG 3) , apparent KD of MS2 coat protein read as 119

get_value(item= UGAUCUAGCGGAGGAUAUACAUGAGGAUCACCCAUGUAGAUGAGUGUACCGUAGUGCACUAUUGUGUAGAAGGCCGCUAGAUCU [JL ENG2 3.63] (Eterna round: R96, puzzle: Exclusion NG 2) , readout=apparent KD of MS2 coat protein) returns 13.7

Recorded apparent KD of MS2 coat protein (sequence CGUUCGCGUGUAGGAUAUGUGUCUGUGUCGGGCGCAGAAGGACAUGAGGAUCACCCAUGUCUGCGGGUGUGGGCGCUCUCUGCG [-29, -28 kcal A 14%] (Eterna round: R96, puzzle: Exclusion NG 1) ): 18.2

For CUUGUUUAUGUAGGAUAUGCCUGGCGUGCCUUUGCAGAAGGACAUGAGGAUCACCCAUGUAACAUGAGGCUCACCCUUGUCGCA [salish99_ExNG1_r04_115] (Eterna round: R96, puzzle: Exclusion NG 1) the sequence record lists apparent KD of MS2 coat protein as 62

Item: CUGAGGUAGCGGUCCUAUGACAUGAGGAUCACCCAUGUACCUUGCUACAAGCUUUUUGCUCGUCUUAUGAUUCUCGG [JL Atriat mod 8] (Eterna round: R96, puzzle: Sensor v3, turn-off variant 1) | apparent KD of MS2 coat protein: 154

For UUGUUAUAUGUAGGAUAUGCAUAUUAUUAUUAUGCAGAAGGACAUGAGGAUCACCCAUGUGUAUUAUUAUUAUAUAUUAUAUAU [Title] (Eterna round: R96, puzzle: Exclusion NG 1) the sequence record lists apparent KD of MS2 coat protein as 17.4
